B1: library; a variant is named by its letters at N, in order (parent)
chain: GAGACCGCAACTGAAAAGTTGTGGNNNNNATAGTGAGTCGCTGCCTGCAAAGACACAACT

# Variants of: B1
# protocol-summary: ligation selection enrichment (abundance after / before one-round selection) (fold); higher = more template-directed ligation activity
# conditions: with T7Psub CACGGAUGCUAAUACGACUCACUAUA; MgCl2 25 mM; 42 °C; 4 h; pH 8.5
Recorded ligation selection enrichment by entry
measured-parameter: ligation selection enrichment

INSERT INTO measurements (mutation_label, data_value) VALUES
  ('CGACT', 1.09),
  ('GCGGC', 0.103),
  ('TCCTC', 0.107),
  ('CGGTA', 0.133),
  ('CATTC', 0.152),
  ('CTTAG', 0.243),
  ('AACGT', 0.167),
  ('GCCCC', 0.227),
  ('GGTTA', 0.477),
  ('CCTCA', 0.348),
  ('GGCTG', 0.393),
  ('CTTAT', 0.512),
  ('GCATA', 0.204),
  ('AATAA', 0.179),
  ('CTAAG', 0.314),
  ('CATAG', 0.237),
  ('CTTCG', 1.47),
  ('CGGAA', 1.02),
  ('GATCG', 0.78),
  ('TGAAC', 0.25),
  ('TGCTA', 0.17),
  ('CGGGG', 0.165),
  ('ACCGG', 0.409),
  ('TCACG', 0.341),
  ('GCTCG', 0.533),
  ('CATCG', 1.33),
  ('CAGTA', 0.14),
  ('TCGGT', 0.115),
  ('GTGTG', 0.75),
  ('ACAGG', 0.217),
  ('GAAAA', 0.135),
  ('AGTCG', 3.1),
  ('GTTAG', 0.728),
  ('GTCAG', 0.628),
  ('CATCA', 0.288),
  ('AGGAA', 2.74),
  ('TGCGA', 2.41),
  ('CCACT', 0.416),
  ('ACCTG', 0.492),
  ('CAAAA', 0.131),
  ('TCGCG', 0.485),
  ('CCTTG', 0.874),
  ('CGAAC', 0.246),
  ('GTTTC', 0.169),
  ('TACGA', 1.32),
  ('AGTTC', 0.176);
